system: IKBKE (human) (UniProt Q14164)
Sequence (Q14164 whole entry, looked up): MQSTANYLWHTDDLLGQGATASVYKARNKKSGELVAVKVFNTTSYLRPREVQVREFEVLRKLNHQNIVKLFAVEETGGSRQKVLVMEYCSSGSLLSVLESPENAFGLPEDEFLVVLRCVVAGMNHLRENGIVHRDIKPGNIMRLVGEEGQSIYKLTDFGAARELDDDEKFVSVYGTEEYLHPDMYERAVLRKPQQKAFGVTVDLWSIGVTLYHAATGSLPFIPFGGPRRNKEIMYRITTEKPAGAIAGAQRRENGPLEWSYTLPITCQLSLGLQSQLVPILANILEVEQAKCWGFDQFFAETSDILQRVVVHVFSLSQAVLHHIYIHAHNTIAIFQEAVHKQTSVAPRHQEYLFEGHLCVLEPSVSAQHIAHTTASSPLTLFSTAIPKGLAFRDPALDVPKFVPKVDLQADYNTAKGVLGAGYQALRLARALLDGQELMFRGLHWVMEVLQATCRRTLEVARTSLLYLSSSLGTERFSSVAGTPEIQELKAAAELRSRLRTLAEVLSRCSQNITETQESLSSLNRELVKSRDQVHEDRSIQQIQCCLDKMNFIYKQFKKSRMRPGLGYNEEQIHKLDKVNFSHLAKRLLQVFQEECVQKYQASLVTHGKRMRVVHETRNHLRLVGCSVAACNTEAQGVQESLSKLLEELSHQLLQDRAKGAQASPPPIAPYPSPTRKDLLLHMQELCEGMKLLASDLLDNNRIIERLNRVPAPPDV
run-description: KINOMEscan competition binding
run-conditions: compound 10.0 µM
Task for the reader: assign each of the following compounds its reported kinase still bound, per cent of control.
Numbers only, in %.

Guide cases for kinase still bound, per cent of control, answers given:
>  <test-smiles>
CCN1CCN(Cc2ccc(Nc3ncc4c(n3)N(C)c3ccccc3C(=O)N4C)cc2C(F)(F)F)CC1

>  <observation-type>
kinase still bound, per cent of control

>  <endpoint-unit>
%

>  <recorded-number>
73

$$$$
>  <test-smiles>
Cn1c(=O)n(-c2ccc(C(C)(C)C#N)cc2)c2c3cc(-c4cnc5ccccc5c4)ccc3ncc21

>  <observation-type>
kinase still bound, per cent of control

>  <endpoint-unit>
%

>  <recorded-number>
100

$$$$
>  <test-smiles>
Nc1ccc(-c2ccc3ncc4ccc(=O)n(-c5cccc(C(F)(F)F)c5)c4c3c2)cn1

>  <observation-type>
kinase still bound, per cent of control

>  <endpoint-unit>
%

>  <recorded-number>
89

$$$$
>  <test-smiles>
CCOc1cc2ncc(C#N)c(Nc3ccc(OCc4ccccn4)c(Cl)c3)c2cc1NC(=O)/C=C/CN(C)C

>  <observation-type>
kinase still bound, per cent of control

>  <endpoint-unit>
%

>  <recorded-number>
100

$$$$
>  <test-smiles>
C[C@@H](Oc1cc(-n2cnc3ccc(CN4CCN(C)CC4)cc32)sc1C(N)=O)c1ccccc1C(F)(F)F

>  <observation-type>
kinase still bound, per cent of control

>  <endpoint-unit>
%

>  <recorded-number>
58

$$$$

For the 3 compounds below, give their kinase still bound, per cent of control values.
1. Cc1ccc(NC(=O)c2cccc(C(C)(C)C#N)c2)cc1Nc1ccc2ncn(C)c(=O)c2c1
2. CC[C@@H]1C(=O)N(C)c2cnc(Nc3ccc(C(=O)NC4CCN(C)CC4)cc3OC)nc2N1C1CCCC1
3. Cc1cc([C@@H](C)Nc2ccccc2C(=O)O)c2nc(N3CCOCC3)cc(=O)n2c1

1: 100; 2: 100; 3: 85

* * *

Task for the reader: assign each of the following compounds its reported kinase still bound, per cent of control.
system: CSNK2A2 (human)
run-description: KINOMEscan competition binding
run-conditions: compound 10.0 µM
Numbers only, in %.

Guide cases for kinase still bound, per cent of control, answers given:
>  <compound>
O=C(NOC[C@H](O)CO)c1ccc(F)c(F)c1Nc1ccc(I)cc1F

>  <kinase still bound, per cent of control [%]>
100

$$$$
>  <compound>
Nc1ccc(-c2ccc3ncc4ccc(=O)n(-c5cccc(C(F)(F)F)c5)c4c3c2)cn1

>  <kinase still bound, per cent of control [%]>
48

$$$$
>  <compound>
CCN1CCN(Cc2ccc(Nc3ncc4c(n3)N(C)c3ccccc3C(=O)N4C)cc2C(F)(F)F)CC1

>  <kinase still bound, per cent of control [%]>
100

$$$$

For the 4 compounds below, give their kinase still bound, per cent of control values.
1. O=C(NC1CC1)c1cccc(-c2ccc3c(NC(=O)C4CC4)n[nH]c3c2)c1
2. Cc1ccc(C(=O)Nc2cccc(C(F)(F)F)c2)cc1Nc1cncc(C(N)=O)c1
3. OCCCNc1cc(-c2ccnc(Nc3cccc(Cl)c3)n2)ccn1
4. CCCS(=O)(=O)Nc1ccc(F)c(C(=O)c2c[nH]c3ncc(-c4ccc(Cl)cc4)cc23)c1F

[16, 100, 100, 100]

For the 2 compounds below, give their kinase still bound, per cent of control values.
1. O=C1Nc2ccc(I)cc2/C1=C/c1cc(Br)c(O)c(Br)c1
2. COc1cc(C(=O)NC2CCN(C)CC2)ccc1Nc1ncc2c(n1)N(C1CCCC1)C(C)CC(=O)N2C (centres undefined)

1: 3.2; 2: 100

* * *

system: NEK5 (human) (UniProt Q6P3R8)
Sequence (Q6P3R8 whole entry, looked up): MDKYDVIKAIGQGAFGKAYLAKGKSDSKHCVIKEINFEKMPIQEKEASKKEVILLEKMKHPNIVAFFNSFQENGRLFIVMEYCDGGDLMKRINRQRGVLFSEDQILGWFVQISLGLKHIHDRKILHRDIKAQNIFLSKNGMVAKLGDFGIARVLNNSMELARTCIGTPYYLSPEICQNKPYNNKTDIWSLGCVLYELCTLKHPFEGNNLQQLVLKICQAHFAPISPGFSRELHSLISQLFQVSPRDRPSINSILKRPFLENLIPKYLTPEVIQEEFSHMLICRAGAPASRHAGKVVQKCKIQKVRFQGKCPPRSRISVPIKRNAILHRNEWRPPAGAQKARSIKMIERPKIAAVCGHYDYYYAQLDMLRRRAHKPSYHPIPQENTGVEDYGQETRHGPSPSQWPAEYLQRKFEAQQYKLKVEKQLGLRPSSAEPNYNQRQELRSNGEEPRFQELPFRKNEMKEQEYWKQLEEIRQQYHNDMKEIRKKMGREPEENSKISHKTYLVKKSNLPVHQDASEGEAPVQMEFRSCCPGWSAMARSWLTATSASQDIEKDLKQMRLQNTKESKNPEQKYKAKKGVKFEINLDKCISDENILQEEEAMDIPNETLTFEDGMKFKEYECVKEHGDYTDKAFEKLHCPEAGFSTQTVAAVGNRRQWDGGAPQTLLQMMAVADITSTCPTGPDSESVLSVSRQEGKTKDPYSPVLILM
run-description: KINOMEscan competition binding
run-conditions: compound 10.0 µM
Binary call on kinase still bound, per cent of control with cut-off 90%: strictly below means Condition met, and equality or higher means Condition not met.

Field: example entries. Status: answers known.
>  <test-smiles>
C[C@@H](Oc1cc(-n2cnc3ccc(CN4CCN(C)CC4)cc32)sc1C(N)=O)c1ccccc1C(F)(F)F

>  <system>
NEK5 (human) (UniProt Q6P3R8)

>  <category>
Condition met

$$$$
>  <test-smiles>
C=CC(=O)Nc1cc(NC(=O)c2ccc(C)c(NC(=O)c3ccno3)c2)cc(C(F)(F)F)c1

>  <system>
NEK5 (human) (UniProt Q6P3R8)

>  <category>
Condition not met

$$$$
>  <test-smiles>
OCCCNc1cc(-c2ccnc(Nc3cccc(Cl)c3)n2)ccn1

>  <system>
NEK5 (human) (UniProt Q6P3R8)

>  <category>
Condition not met

$$$$
>  <test-smiles>
O=C(NOC[C@H](O)CO)c1ccc(F)c(F)c1Nc1ccc(I)cc1F

>  <system>
NEK5 (human) (UniProt Q6P3R8)

>  <category>
Condition met

$$$$

I wonder whether `N#Cc1c(NC(=O)c2cccc3ccccc23)sc2c1CCCC2` has kinase still bound, per cent of control below 90%. Can you tell?
Condition met

I wonder whether `CCN1CCN(Cc2ccc(Nc3ncc4c(n3)N(C)c3ccccc3C(=O)N4C)cc2C(F)(F)F)CC1` has kinase still bound, per cent of control below 90%. Can you tell?
Condition met

* * *

System: ABL1 (human), P00519 [T315I]
run-description: KINOMEscan competition binding
run-conditions: compound 10.0 µM
observation-type: kinase still bound, per cent of control (%)
One number for each entry, in %.

Guide cases for kinase still bound, per cent of control, answers given:
>  <test-smiles>
COc1cc(N2CCC(C(N)=O)CC2)ccc1Nc1nc(N)c(Cl)c(Nc2ccccc2S(=O)(=O)C(C)C)n1

>  <recorded-number>
100

$$$$
>  <test-smiles>
CS(=O)(=O)N1CCN(Cc2cc3nc(-c4cccc5[nH]ncc45)nc(N4CCOCC4)c3s2)CC1

>  <recorded-number>
100

$$$$
>  <test-smiles>
C=CC(=O)Nc1ccc(CN(C(=O)Nc2c(Cl)c(OC)cc(OC)c2Cl)c2cc(Nc3ccc(N4CCN(C)CC4)cc3)ncn2)cc1

>  <recorded-number>
6.4

$$$$

Please give the measured kinase still bound, per cent of control for this compound: `CCN(CCO)CCCOc1ccc2c(Nc3cc(CC(=O)Nc4cccc(F)c4)[nH]n3)ncnc2c1`
0.6

* * *

Tested on: PIK3CA (human), P42336 [E545A]
Sequence (P42336 whole entry E545A, looked up): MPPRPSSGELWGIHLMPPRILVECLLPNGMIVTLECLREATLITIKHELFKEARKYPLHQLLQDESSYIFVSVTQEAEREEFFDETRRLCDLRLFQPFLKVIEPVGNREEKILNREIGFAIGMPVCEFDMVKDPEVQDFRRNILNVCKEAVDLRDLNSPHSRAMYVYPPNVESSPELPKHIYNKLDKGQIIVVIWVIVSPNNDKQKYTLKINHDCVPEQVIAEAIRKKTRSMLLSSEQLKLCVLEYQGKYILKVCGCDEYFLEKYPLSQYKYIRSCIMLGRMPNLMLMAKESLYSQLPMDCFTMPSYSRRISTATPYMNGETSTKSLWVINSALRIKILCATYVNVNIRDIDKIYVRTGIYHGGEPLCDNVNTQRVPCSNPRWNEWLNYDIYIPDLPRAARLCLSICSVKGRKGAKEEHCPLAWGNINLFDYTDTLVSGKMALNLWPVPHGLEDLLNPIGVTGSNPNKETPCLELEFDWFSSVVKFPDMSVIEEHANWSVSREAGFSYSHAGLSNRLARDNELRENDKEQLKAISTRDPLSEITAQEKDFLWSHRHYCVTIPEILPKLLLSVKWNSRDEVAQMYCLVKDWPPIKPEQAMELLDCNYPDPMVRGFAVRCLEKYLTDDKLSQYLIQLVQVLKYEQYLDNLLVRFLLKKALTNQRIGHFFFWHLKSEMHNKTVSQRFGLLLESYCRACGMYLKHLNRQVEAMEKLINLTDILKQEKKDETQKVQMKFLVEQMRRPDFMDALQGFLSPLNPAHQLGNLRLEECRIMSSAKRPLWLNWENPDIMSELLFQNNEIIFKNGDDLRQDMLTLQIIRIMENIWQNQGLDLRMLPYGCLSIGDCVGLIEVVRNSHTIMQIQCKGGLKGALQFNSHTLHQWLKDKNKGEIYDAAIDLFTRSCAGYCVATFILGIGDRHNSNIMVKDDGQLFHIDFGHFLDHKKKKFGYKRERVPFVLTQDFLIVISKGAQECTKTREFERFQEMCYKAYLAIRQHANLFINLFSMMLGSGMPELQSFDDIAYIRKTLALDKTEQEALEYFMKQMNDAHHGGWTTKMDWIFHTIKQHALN
run-description: KINOMEscan competition binding
run-conditions: compound 10.0 µM
observation-type: kinase still bound, per cent of control

Guide cases for kinase still bound, per cent of control, answers given:
>  <test-smiles>
CN(C)C/C=C/C(=O)Nc1cccc(Nc2ncc3c(n2)N(C)c2ccccc2C(=O)N3C)c1

>  <system>
PIK3CA (human), P42336 [E545A]

>  <kinase still bound, per cent of control>
67%

$$$$
>  <test-smiles>
CS(=O)(=O)N1CCN(Cc2cc3nc(-c4cccc5[nH]ncc45)nc(N4CCOCC4)c3s2)CC1

>  <system>
PIK3CA (human), P42336 [E545A]

>  <kinase still bound, per cent of control>
0.35%

$$$$
>  <test-smiles>
COc1cc(N2CCN(C)CC2)ccc1Nc1ncc2c(n1)N(C)c1ccccc1C(=O)N2C

>  <system>
PIK3CA (human), P42336 [E545A]

>  <kinase still bound, per cent of control>
100%

$$$$
>  <test-smiles>
C[C@@H](Oc1cc(-n2cnc3ccc(CN4CCN(C)CC4)cc32)sc1C(N)=O)c1ccccc1C(F)(F)F

>  <system>
PIK3CA (human), P42336 [E545A]

>  <kinase still bound, per cent of control>
40%

$$$$
>  <test-smiles>
O=C(NC1CC1)c1cccc(-c2ccc3c(NC(=O)C4CC4)n[nH]c3c2)c1

>  <system>
PIK3CA (human), P42336 [E545A]

>  <kinase still bound, per cent of control>
93%

$$$$
>  <test-smiles>
C=CC(=O)Nc1cc(NC(=O)c2ccc(C)c(NC(=O)c3ccno3)c2)cc(C(F)(F)F)c1

>  <system>
PIK3CA (human), P42336 [E545A]

>  <kinase still bound, per cent of control>
86%

$$$$

For the 5 compounds below, give their kinase still bound, per cent of control values.
1. N#C/C(=C1/Nc2ccccc2S1)c1ccnc(NCCc2cccnc2)n1
2. CCN1CCN(Cc2ccc(Nc3ncc4c(n3)N(C)c3ccccc3C(=O)N4C)cc2C(F)(F)F)CC1
3. O=c1[nH]c2ccccc2n1C1CCN(Cc2ccc(-c3nc4cc5[nH]cnc5cc4nc3-c3ccccc3)cc2)CC1
4. CCN(CC)CCCCNc1ncc2c(n1)N(C)C(=O)N(c1c(Cl)c(OC)cc(OC)c1Cl)C2
5. CCc1nc(-c2cccc(C)c2)c(-c2ccnc(NC(=O)c3ccccc3)c2)s1

41%
6.2%
95%
100%
54%

For the 6 compounds below, give their kinase still bound, per cent of control values.
1. Cc1ccc(NC(=O)c2cccc(C(C)(C)C#N)c2)cc1Nc1ccc2ncn(C)c(=O)c2c1
2. CCOc1cc(N2CCC(O)CC2)ccc1Nc1ncc2c(n1)N(C)c1ccccc1C(=O)N2C
3. COc1cc(C(=O)N2CCC(N3CCN(C)CC3)CC2)ccc1Nc1ncc2c(n1)N(C)c1ccccc1C(=O)N2C
4. C=CC(=O)Nc1ccc(C(=O)c2sc(Nc3ccc(N4CCN(C)CC4)cc3OC)nc2N)cc1
5. Cc1cn(-c2cc(C(=O)Nc3ccc(C)c(NC(=O)c4ccno4)c3)cc(C(F)(F)F)c2)cn1
6. C=CC(=O)Nc1cccc(Nc2nc(N[C@H]3CC[C@H](N(C)C)CC3)nc3c2ncn3C(C)C)c1

89%
100%
98%
93%
100%
100%

Please give the measured kinase still bound, per cent of control for this compound: `COCC(=O)NC/C=C/c1ccc2ncnc(Nc3ccc(Oc4ccc(C)nc4)c(C)c3)c2c1`
33%
